- target.of.assay: Serine/threonine-protein kinase 3 (Homo sapiens); also: in the data inactive means no Kd found up to 30 µM
- Sequence (Q13188 whole entry): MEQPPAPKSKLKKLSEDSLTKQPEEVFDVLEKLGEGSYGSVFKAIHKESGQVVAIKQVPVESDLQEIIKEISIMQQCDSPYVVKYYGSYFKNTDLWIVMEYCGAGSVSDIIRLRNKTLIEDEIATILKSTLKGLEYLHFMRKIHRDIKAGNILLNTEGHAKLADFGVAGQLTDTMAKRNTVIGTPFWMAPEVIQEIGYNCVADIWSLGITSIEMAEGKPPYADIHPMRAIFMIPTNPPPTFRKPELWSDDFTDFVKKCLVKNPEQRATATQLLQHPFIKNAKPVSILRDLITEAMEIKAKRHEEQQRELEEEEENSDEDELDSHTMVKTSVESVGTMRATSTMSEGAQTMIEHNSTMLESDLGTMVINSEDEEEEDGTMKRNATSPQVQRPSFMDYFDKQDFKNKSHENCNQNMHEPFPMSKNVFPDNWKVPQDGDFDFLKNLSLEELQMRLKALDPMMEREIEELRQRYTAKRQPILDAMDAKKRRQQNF
Where a name gives a salt, the structure may show the parent alone. Active and inactive are the calls of the source.
The categories you may choose from are label 1 = active, label 0 = inactive

compound	target.of.assay	cat
C[C@@H](Oc1cc(C(=O)Nc2ccc(C(=O)N3CCN(C)CC3)cc2)nnc1N)c1c(Cl)ccc(F)c1Cl	Serine/threonine-protein kinase 3 (Homo sapiens)	label 0
COc1cc([C@@H]2c3cc4c(cc3[C@H](O)[C@H]3COC(=O)[C@@H]23)OCO4)cc(OC)c1OC	Serine/threonine-protein kinase 3 (Homo sapiens)	label 0
CC(=O)c1cnc2ccc(-c3cc(Cl)c(O)c(Cl)c3)nc2c1N[C@H]1CC[C@H](CN(C)C)CC1	Serine/threonine-protein kinase 3 (Homo sapiens)	label 1
Cc1nc2cc(-c3nn(C(C)C)c4ncnc(N)c34)ccc2o1	Serine/threonine-protein kinase 3 (Homo sapiens)	label 0
Cc1cc(Nc2ncnc3ccc(NC4=NC(C)(C)CO4)cc23)ccc1Oc1ccn2ncnc2c1	Serine/threonine-protein kinase 3 (Homo sapiens)	label 0

State the result this test recorded for `COc1ncc(-c2ccc3nccc(-c4ccnnc4)c3c2)cc1NS(=O)(=O)c1ccc(F)cc1F` .
label 0

Do the same for `C[C@H]1CNCCCN1S(=O)(=O)c1cccc2cncc(F)c12` please
label 0

Do the same for `CO[C@H]1C[C@@H]2CC[C@@H](C)[C@@](O)(O2)C(=O)C(=O)N2CCCC[C@H]2C(=O)O[C@H]([C@H](C)C[C@@H]2CC[C@@H](OP(C)(C)=O)[C@H](OC)C2)CC(=O)[C@H](C)/C=C(\C)[C@@H](O)[C@@H](OC)C(=O)[C@H](C)C[C@H](C)/C=C/C=C/C=C/1C` please
label 0

Do the same for `O=C(Nc1c[nH]nc1-c1nc2cc(CN3CCOCC3)ccc2[nH]1)NC1CC1` please
label 0

Do the same for `Cc1nc2cc(-n3ncc(C(=O)c4cc5ccccc5[nH]4)c3N)ccc2[nH]1` please
label 0

Do the same for CCS(=O)(=O)N1CCN(c2ccc(Nc3ncc(C(N)=O)c(NC4CC4)n3)cc2)CC1 [Cerdulatinib Hydrochloride] please
label 1

Do the same for `COc1cc2c(Nc3ccc(Cl)c(Cl)c3F)ncnc2cc1OC[C@@H]1C[C@@H]2CN(C)C[C@@H]2C1` please
label 0

Do the same for `Cn1cc(-c2cnn3c(N)c(Br)c([C@@H]4CCCNC4)nc23)cn1` please
label 0

Do the same for `CCNC(=O)C#Cc1ccc2c(c1)NC(=O)/C2=C(\Nc1ccc(CN(C)C)cc1)c1ccccc1` please
label 1

Do the same for O=C1NC(=O)[C@@H](c2cn3c4c(cccc24)CCC3)[C@@H]1c1c[nH]c2ccccc12 [TIVANTINIB] please
label 0

Do the same for `Cc1cccc(-c2nn3c(c2-c2ccnc4ccc(C(N)=O)cc24)CCC3)n1` please
label 0

Do the same for `Cc1nc(Nc2n[nH]c3c2CN(C(=O)N[C@H](CN(C)C)c2ccccc2)C3(C)C)c2sccc2n1` please
label 1

Do the same for `COCC(=O)NC/C=C/c1ccc2ncnc(Nc3ccc(Oc4ccc(C)nc4)c(C)c3)c2c1` please
label 0

Do the same for `C[C@@H](N)c1ccc(C(=O)Nc2ccnc3[nH]ccc23)cc1` please
label 0

Do the same for O=c1[nH]ccc2cc(OC3CCNCC3)ccc12 [SAR-407899 FREE BASE] please
label 0

Do the same for `CNC(=O)c1nn(C)c2c1C(C)(C)Cc1cnc(Nc3ccc(N4CCN(C)CC4)cc3)nc1-2` please
label 0

Do the same for `Cn1ncc(Cl)c1-c1cc(C(=O)N[C@H](CN)Cc2ccc(F)c(F)c2)oc1Cl` please
label 0

Do the same for `CNC(=O)c1cc(Oc2ccc(NC(=O)Nc3cc(C(C)(C)C)nn3-c3ccc4ncccc4c3)c(F)c2)ccn1` please
label 1

Do the same for `CCn1cc(-c2ccnc3[nH]c(-c4cccc(CN(C)C)c4)cc23)c(-c2ccc(NC(=O)N(C)C)cc2)n1` please
label 0

----------
Here, each record is paired with measured Kd data.
- target.of.assay: Mitogen-activated protein kinase 15 (Homo sapiens, UniProt Q8TD08); also: in the data inactive means no Kd found up to 30 µM
- Sequence (Q8TD08 whole entry): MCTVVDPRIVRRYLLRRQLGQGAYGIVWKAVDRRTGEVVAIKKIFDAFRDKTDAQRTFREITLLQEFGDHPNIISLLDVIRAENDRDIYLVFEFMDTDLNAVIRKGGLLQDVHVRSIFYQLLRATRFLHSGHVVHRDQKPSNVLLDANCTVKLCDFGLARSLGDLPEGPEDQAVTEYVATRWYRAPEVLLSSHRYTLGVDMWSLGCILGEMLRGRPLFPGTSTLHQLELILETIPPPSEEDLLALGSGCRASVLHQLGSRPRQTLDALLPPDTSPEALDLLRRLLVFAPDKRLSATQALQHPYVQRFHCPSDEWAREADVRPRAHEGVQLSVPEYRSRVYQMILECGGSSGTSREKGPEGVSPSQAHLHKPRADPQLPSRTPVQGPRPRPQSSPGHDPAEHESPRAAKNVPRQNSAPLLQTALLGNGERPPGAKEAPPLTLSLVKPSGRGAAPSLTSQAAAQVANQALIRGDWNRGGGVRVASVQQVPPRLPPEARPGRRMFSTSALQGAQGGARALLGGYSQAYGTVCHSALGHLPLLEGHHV
Activity calls are given as the source filed them.

Any idea what Kd was measured for CNC(=O)c1cc(Oc2ccc(NC(=O)Nc3cc(C(C)(C)C)nn3-c3ccc4ncccc4c3)c(F)c2)ccn1 [REBASTINIB] ?
0.276 µM (active)

----------
- target.of.assay: AP2-associated protein kinase 1 (Homo sapiens, UniProt Q2M2I8); also: in the data inactive means no Kd found up to 30 µM
- Sequence (Q2M2I8 whole entry): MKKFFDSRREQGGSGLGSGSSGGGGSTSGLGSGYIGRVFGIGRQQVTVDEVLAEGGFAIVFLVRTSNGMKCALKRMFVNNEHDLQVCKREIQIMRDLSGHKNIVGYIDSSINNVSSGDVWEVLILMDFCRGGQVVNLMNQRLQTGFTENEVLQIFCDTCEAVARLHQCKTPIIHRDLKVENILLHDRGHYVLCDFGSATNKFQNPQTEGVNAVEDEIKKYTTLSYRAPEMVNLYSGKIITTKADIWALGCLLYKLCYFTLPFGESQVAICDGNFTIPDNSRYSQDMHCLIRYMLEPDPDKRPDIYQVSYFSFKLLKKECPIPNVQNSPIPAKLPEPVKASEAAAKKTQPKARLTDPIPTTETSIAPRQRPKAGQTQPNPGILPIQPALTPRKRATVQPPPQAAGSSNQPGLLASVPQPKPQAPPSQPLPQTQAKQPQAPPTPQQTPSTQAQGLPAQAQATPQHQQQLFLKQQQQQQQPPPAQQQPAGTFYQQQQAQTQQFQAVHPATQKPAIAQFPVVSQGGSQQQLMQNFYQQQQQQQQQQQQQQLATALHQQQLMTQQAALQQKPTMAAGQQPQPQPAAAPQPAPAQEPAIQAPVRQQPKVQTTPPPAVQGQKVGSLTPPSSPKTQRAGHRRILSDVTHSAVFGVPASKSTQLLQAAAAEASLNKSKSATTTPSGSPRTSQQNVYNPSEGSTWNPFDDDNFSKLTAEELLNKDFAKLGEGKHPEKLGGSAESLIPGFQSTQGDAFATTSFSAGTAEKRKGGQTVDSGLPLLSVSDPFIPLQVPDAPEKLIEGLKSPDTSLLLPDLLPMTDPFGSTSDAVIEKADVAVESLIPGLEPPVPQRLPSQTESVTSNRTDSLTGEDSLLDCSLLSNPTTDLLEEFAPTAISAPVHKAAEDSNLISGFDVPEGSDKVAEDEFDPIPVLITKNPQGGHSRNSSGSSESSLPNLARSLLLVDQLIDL
Active and inactive are the calls of the source.
The categories you may choose from are true (1) = active, false (0) = inactive

Examples from the recorded data:
compound	cat
Cc1cc(Nc2ncc(Cl)c(Nc3ccccc3S(=O)(=O)C(C)C)n2)c(OC(C)C)cc1C1CCNCC1	false (0)
CN(C[C@@H]1COCCO1)S(=O)(=O)Nc1ccc2ccc3ncc(-c4cnn(C)c4)cc3c(=O)c2c1	true (1)
NC(=O)c1c(OCc2c(F)cc(Br)cc2F)nsc1NC(=O)NCCCCN1CCCC1	false (0)
CCCCCCCCCCCCCCCCCCOP(=O)([O-])OC1CC[N+](C)(C)CC1	false (0)
Cn1cc(-c2cnc3ccc4ccc(CS(=O)(=O)NCc5ccccn5)cc4c(=O)c3c2)cn1	false (0)
CNC(=O)c1cc(Oc2ccc(NC(=O)Nc3cc(C(C)(C)C)nn3-c3ccc4ncccc4c3)c(F)c2)ccn1	false (0)
Cc1[nH]c(/C=C2\C(=O)Nc3ccccc32)c(C)c1CCC(=O)O [ORANTINIB]	true (1)

Now take the following compound into account.
State the result this test recorded for `NC1(c2ccc(-c3nc4ccn5c(=O)[nH]nc5c4cc3-c3ccccc3)cc2)CCC1` .
false (0)

----------
- target.of.assay: UniProt:P62826
Activity calls are given as the source filed them.
reported.metric: Kd

Answered examples (2):
structure.notation	assay.value
O=C(Nc1cc(C(F)(F)F)cc(C(F)(F)F)c1)c1cc(Cl)ccc1O	> 30 µM (inactive)
CO[C@H]1C[C@@H]2CC[C@@H](C)[C@@](O)(O2)C(=O)C(=O)N2CCCC[C@H]2C(=O)O[C@H]([C@H](C)C[C@@H]2CC[C@@H](O)[C@H](OC)C2)CC(=O)[C@H](C)/C=C(\C)[C@@H](O)[C@@H](OC)C(=O)[C@H](C)C[C@H](C)/C=C/C=C/C=C/1C	> 30 µM (inactive)

Any idea what Kd was measured for `Cc1cc(Nc2ncc(Cl)c(Nc3ccccc3S(=O)(=O)C(C)C)n2)c(OC(C)C)cc1C1CCNCC1` ?
> 30 µM (inactive)

----------
- target.of.assay: Cyclin-dependent kinase 2 (Homo sapiens, UniProt P24941); also: in the data inactive means no Kd found up to 30 µM
Calls of active or inactive are those of the source.
The categories you may choose from are active, inactive

molecule	target.of.assay	cat
C[C@H]1CNCCCN1S(=O)(=O)c1cccc2cncc(F)c12	Cyclin-dependent kinase 2 (Homo sapiens, UniProt P24941)	inactive
CN(C[C@@H]1COCCO1)S(=O)(=O)Nc1ccc2ccc3ncc(-c4cnn(C)c4)cc3c(=O)c2c1 [MK-2461]	Cyclin-dependent kinase 2 (Homo sapiens, UniProt P24941)	inactive
CCCCCCCCCCCCCCCCCCOP(=O)([O-])OC1CC[N+](C)(C)CC1 [PERIFOSINE]	Cyclin-dependent kinase 2 (Homo sapiens, UniProt P24941)	inactive

Now take the following molecule into account.
State the result this test recorded for `COCc1c(-c2ccc(NC(=O)Nc3cc(C(F)(F)F)ccc3F)c(F)c2)c2c(N)ncnn2c1CN1CCOCC1` .
inactive

----------
- target.of.assay: Mitogen-activated protein kinase kinase kinase kinase 4 (Homo sapiens, UniProt O95819); also: in the data inactive means no Kd found up to 30 µM
- Sequence (O95819 whole entry): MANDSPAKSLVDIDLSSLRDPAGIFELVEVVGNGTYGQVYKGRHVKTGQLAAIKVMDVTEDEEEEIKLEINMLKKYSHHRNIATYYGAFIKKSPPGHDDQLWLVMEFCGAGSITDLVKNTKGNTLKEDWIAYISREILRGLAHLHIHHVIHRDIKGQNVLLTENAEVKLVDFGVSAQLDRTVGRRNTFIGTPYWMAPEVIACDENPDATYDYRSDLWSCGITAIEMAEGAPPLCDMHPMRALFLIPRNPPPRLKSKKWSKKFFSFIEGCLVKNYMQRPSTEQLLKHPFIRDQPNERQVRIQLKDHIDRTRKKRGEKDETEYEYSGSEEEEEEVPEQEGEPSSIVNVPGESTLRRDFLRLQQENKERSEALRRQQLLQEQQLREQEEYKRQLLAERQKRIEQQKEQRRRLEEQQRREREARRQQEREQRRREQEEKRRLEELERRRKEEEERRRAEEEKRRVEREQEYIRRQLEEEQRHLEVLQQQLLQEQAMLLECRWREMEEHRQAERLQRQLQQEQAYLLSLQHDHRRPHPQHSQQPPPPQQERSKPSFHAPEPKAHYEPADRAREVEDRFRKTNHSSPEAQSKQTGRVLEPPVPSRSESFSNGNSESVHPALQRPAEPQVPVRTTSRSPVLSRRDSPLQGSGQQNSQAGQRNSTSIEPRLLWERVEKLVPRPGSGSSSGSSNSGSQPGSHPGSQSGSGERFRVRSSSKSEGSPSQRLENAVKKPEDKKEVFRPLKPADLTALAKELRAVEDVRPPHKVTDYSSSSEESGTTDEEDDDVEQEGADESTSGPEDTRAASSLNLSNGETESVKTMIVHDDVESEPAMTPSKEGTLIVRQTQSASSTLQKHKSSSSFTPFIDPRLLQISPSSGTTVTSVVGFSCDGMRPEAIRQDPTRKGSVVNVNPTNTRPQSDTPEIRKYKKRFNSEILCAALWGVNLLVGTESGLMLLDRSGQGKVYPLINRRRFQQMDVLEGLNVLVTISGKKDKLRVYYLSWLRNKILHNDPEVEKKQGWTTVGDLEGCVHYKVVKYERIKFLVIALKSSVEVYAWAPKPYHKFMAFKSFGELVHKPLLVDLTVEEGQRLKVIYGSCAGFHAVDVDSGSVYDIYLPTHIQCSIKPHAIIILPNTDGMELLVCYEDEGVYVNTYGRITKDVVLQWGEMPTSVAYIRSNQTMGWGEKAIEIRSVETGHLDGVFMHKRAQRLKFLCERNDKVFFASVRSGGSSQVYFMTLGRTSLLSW
Calls of active or inactive are those of the source.
The categories you may choose from are active, inactive

Examples from the recorded data:
molecule	cat
O=C(Nc1cc(C(F)(F)F)cc(C(F)(F)F)c1)c1cc(Cl)ccc1O [IMD-0354]	inactive
Cc1nc(NC(=O)N2CCC[C@H]2C(N)=O)sc1-c1ccnc(C(C)(C)C(F)(F)F)c1 [ALPELISIB]	inactive
Cn1cc(-c2cnn3c(N)c(Br)c([C@@H]4CCCNC4)nc23)cn1 [SCH-900776]	inactive
Cc1cc(Nc2ncc(Cl)c(Nc3ccccc3S(=O)(=O)C(C)C)n2)c(OC(C)C)cc1C1CCNCC1 [CERITINIB]	inactive
Cc1cc(C(=O)NOCCO)c(Nc2ccc(I)cc2F)n(C)c1=O [AZD-8330]	inactive

State the result this test recorded for CCS(=O)(=O)c1cccc(-c2cc(C(=O)NC3CCN(C)CC3)c(C)c3[nH]c4ncc(C)cc4c23)c1 [TAK-901] .
inactive

Do the same for NC(=O)Nc1cc(-c2cccc(F)c2)sc1C(=O)N[C@H]1CCCNC1 [AZD-7762] please
active

Do the same for C[C@@H](N)c1ccc(C(=O)Nc2ccnc3[nH]ccc23)cc1 [Y-39983] please
active

Do the same for O=C1NC(=O)[C@@H](c2cn3c4c(cccc24)CCC3)[C@@H]1c1c[nH]c2ccccc12 [TIVANTINIB] please
inactive

Do the same for Cc1csc(-c2nnc(Nc3ccc(Oc4ncccc4-c4ccnc(N)n4)cc3)c3ccccc23)c1 [AMG-900] please
inactive

Do the same for CC(C)(C)c1nc(-c2cccc(NS(=O)(=O)c3c(F)cccc3F)c2F)c(-c2ccnc(N)n2)s1 [DABRAFENIB] please
inactive

Do the same for N#CC1(c2ccc(NC(=O)c3cccnc3NCc3ccncc3)cc2)CCCC1 [RIVOCERANIB] please
inactive

Do the same for COc1c(OCCCN2CCOCC2)ccc2c1N=C(NC(=O)c1cnc(N)nc1)N1CCN=C21 [COPANLISIB] please
inactive

Do the same for O=c1[nH]ccc2cc(OC3CCNCC3)ccc12 [SAR-407899 FREE BASE] please
inactive

Do the same for CO[C@H]1C[C@@H]2CC[C@@H](C)[C@@](O)(O2)C(=O)C(=O)N2CCCC[C@H]2C(=O)O[C@H]([C@H](C)C[C@@H]2CC[C@@H](OP(C)(C)=O)[C@H](OC)C2)CC(=O)[C@H](C)/C=C(\C)[C@@H](O)[C@@H](OC)C(=O)[C@H](C)C[C@H](C)/C=C/C=C/C=C/1C [RIDAFOROLIMUS] please
inactive

Do the same for Cn1ncc(Cl)c1-c1cc(C(=O)N[C@H](CN)Cc2ccc(F)c(F)c2)oc1Cl [UPROSERTIB] please
inactive

Do the same for Cc1cc(Nc2ncnc3ccc(NC4=NC(C)(C)CO4)cc23)ccc1Oc1ccn2ncnc2c1 [TUCATINIB] please
inactive

Do the same for COc1cc([C@@H]2c3cc4c(cc3[C@H](O)[C@H]3COC(=O)[C@@H]23)OCO4)cc(OC)c1OC [AXL-1717] please
inactive

Do the same for CN1C/C=C/CCOc2cccc(c2)-c2ccnc(n2)Nc2cccc(c2)C1 [ZOTIRACICLIB] please
inactive

Do the same for `C[C@@H](Oc1cc(C(=O)Nc2ccc(C(=O)N3CCN(C)CC3)cc2)nnc1N)c1c(Cl)ccc(F)c1Cl` please
inactive

Do the same for `CCNC(=O)C#Cc1ccc2c(c1)NC(=O)/C2=C(\Nc1ccc(CN(C)C)cc1)c1ccccc1` please
inactive

Do the same for CCn1c(C(=O)N(C2CC2)C2CC2)cc2c3c(ncn3C)c(Nc3cc(C)n(C)n3)nc21 [BMS-911543] please
inactive

Do the same for CO[C@H]1C[C@@H]2CC[C@@H](C)[C@@](O)(O2)C(=O)C(=O)N2CCCC[C@H]2C(=O)O[C@H]([C@H](C)C[C@@H]2CC[C@@H](OC(=O)C(C)(CO)CO)[C@H](OC)C2)CC(=O)[C@H](C)/C=C(\C)[C@@H](O)[C@@H](OC)C(=O)[C@H](C)C[C@H](C)/C=C/C=C/C=C/1C [TEMSIROLIMUS] please
inactive
